Kindly state GI50 for each of the entries shown.
Tested on: MDA-MB-231 breast
Experiment: NCI tumour cell line growth inhibition, 48 h

What value of GI50 has been recorded for this entry: CCOc1ccc(Nc2nc(-c3c(C)nc4ncccn34)cs2)cc1
0.0797 µM

What value of GI50 has been recorded for this entry: COc1cc(N(CCC#N)CCC#N)ccc1/C(N=Nc1ccc(C(=O)O)cc1)=N/NC(=O)c1cc(Br)ccc1O
72.7 mg/L

What value of GI50 has been recorded for this entry: COc1ccc(OCC(O)CN2CCN(c3ccc(Cl)cc3)CC2)cc1 (centres undefined)
66.1 µM

What value of GI50 has been recorded for this entry: CC1=C(CNO)C2=C(C)C3(CC3)[C@@](C)(O)C(=O)C2=C1
2.03 µM
